B1: Azoarcus group I ribozyme (parent)
chain: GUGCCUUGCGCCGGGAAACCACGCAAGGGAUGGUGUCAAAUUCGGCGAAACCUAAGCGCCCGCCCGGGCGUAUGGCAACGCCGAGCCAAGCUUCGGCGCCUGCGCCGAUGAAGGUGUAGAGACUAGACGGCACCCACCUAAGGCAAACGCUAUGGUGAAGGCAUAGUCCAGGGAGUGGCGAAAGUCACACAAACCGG

Variants of: B1
Test: reverse-splicing fitness (ratio to wild type); higher = more active; in vitro selection; Mg2+ level not given
Please mark Fulfilled if the recorded reverse-splicing fitness is equal to or greater than 0.009, and Not fulfilled if it falls below.

Past entries and their recorded results:
> print(dat)
                               mutant.label  class.assignment
1                    C82G C150A C169G U176C         Fulfilled
2                   A111C A145C C169U U176A         Fulfilled
3             A111U A120C A145U C150A U176C         Fulfilled
4  C82A A111G A120G A145C C150U C169U U176G     Not fulfilled

Could you tell me if the measured reverse-splicing fitness of C82A A111C A120C A145C C150A C169A U176G reaches 0.009 or more?
Not fulfilled

Could you tell me if the measured reverse-splicing fitness of C82G A111C A120G A145U U176G reaches 0.009 or more?
Not fulfilled

Could you tell me if the measured reverse-splicing fitness of A111U A120C U176C reaches 0.009 or more?
Fulfilled
